- study_system: human AspH (His6-AspH315–758) (Homo sapiens, UniProt Q12797)
- Construct: N-Terminally His6-tagged human AspH315–758 (His6-AspH315–758) was produced in Escherichia coli BL21 (DE3) cells; made in house; host or cells: Escherichia coli BL21 (DE3), pET-28a(+) vector
- Sequence (Q12797 315-758): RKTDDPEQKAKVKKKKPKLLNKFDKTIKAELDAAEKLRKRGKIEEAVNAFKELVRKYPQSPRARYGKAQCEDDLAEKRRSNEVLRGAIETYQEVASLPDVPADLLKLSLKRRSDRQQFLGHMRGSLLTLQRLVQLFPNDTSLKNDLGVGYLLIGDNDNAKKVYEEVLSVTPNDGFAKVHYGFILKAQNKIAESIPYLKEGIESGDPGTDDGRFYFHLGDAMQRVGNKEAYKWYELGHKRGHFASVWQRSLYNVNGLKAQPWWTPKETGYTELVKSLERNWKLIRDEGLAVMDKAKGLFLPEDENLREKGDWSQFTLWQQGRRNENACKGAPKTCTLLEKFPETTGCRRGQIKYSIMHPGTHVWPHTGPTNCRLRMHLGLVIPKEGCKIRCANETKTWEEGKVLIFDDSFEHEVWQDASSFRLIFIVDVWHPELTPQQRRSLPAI
- protocol: SPE-MS AspH inhibition assay (hFX-CP101-119 substrate hydroxylation)
- Assay type: biochemical
- condition_context: AspH-inhibitor screening, 384-well Plate 1
observable: Plate 1 (% inhibition) (%)
Expressed in %, but write only the number.

As a guide, the following entries are already answered.
compound	study_system	Plate 1 (% inhibition), %
CN(C)C[C@@H]1CCn2cc(c3ccccc32)C2=C(C(=O)NC2=O)c2cn(c3ccccc23)CCO1.CS(=O)(=O)O [LY 333531 mesylate_Ruboxistaurin]	human AspH (His6-AspH315–758) (Homo sapiens, UniProt Q12797)	10.44
CCc1cc2c(cc1N1CCC(N3CCOCC3)CC1)C(C)(C)c1[nH]c3cc(C#N)ccc3c1C2=O [Alectinib]	human AspH (His6-AspH315–758) (Homo sapiens, UniProt Q12797)	-0.39
CS(=O)(=O)CCNCc1ccc(-c2ccc3ncnc(Nc4ccc(OCc5cccc(F)c5)c(Cl)c4)c3c2)o1 [Lapatinib]	human AspH (His6-AspH315–758) (Homo sapiens, UniProt Q12797)	-31.93

# evaluate next
For the compound shown here, CN(C)/N=N/c1[nH]cnc1C(N)=O [Dacarbazine] , give the reported Plate 1 (% inhibition).
-0.11

---

- study_system: human AspH (His6-AspH315–758) (Homo sapiens, UniProt Q12797)
- Construct: N-Terminally His6-tagged human AspH315–758 (His6-AspH315–758) was produced in Escherichia coli BL21 (DE3) cells; made in house; host or cells: Escherichia coli BL21 (DE3), pET-28a(+) vector
- protocol: SPE-MS AspH inhibition assay (hFX-CP101-119 substrate hydroxylation)
- Format: biochemical
This listing pairs compounds with measured Plate 1-duplicate (% inhibition).
I only need the number, in %, no unit after it.

Examples with answers:
compound	study_system	observable	units_of_measure	reported
Oc1ncc(N(CCCl)CCCl)c(O)n1 [Uracil mustard]	human AspH (His6-AspH315–758) (Homo sapiens, UniProt Q12797)	Plate 1-duplicate (% inhibition)	%	10.76
O=P1(N(CCCl)CCCl)NCCCO1 (stereo not drawn) [Cyclophosphamide]	human AspH (His6-AspH315–758) (Homo sapiens, UniProt Q12797)	Plate 1-duplicate (% inhibition)	%	7.81

Shift focus to the following entry.
Quick one: Plate 1-duplicate (% inhibition) for CS(=O)(=O)CCNCc1ccc(-c2ccc3ncnc(Nc4ccc(OCc5cccc(F)c5)c(Cl)c4)c3c2)o1.Cc1ccc(S(=O)(=O)O)cc1.Cc1ccc(S(=O)(=O)O)cc1 [Lapatinib, di-p-toluenesulfonate salt] ?
-21.39

---

In this section, each of the molecules is paired with its reported Plate 1 (% conversion).
- study_system: human AspH (His6-AspH315–758) (Homo sapiens, UniProt Q12797)
- Construct: N-Terminally His6-tagged human AspH315–758 (His6-AspH315–758) was produced in Escherichia coli BL21 (DE3) cells; made in house; host or cells: Escherichia coli BL21 (DE3), pET-28a(+) vector
- Sequence (Q12797 315-758): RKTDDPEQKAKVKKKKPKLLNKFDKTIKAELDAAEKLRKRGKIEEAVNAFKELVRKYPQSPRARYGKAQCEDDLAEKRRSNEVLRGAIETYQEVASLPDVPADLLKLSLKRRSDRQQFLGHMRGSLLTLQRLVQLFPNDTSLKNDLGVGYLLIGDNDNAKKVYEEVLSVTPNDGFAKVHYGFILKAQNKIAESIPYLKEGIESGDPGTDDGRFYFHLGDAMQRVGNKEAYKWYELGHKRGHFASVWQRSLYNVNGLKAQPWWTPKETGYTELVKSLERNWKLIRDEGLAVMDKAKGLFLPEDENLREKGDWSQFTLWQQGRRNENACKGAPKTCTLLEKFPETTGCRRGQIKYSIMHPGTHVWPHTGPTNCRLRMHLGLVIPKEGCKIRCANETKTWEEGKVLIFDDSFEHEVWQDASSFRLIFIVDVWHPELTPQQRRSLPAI
- protocol: SPE-MS AspH inhibition assay (hFX-CP101-119 substrate hydroxylation)
- Type: biochemical
- condition_context: AspH-inhibitor screening, 384-well Plate 1, substrate conversion
# value in %; strip the unit string

molecule	Plate 1 (% conversion) [%]
c1cc(CN2CCCNCCNCCCNCC2)ccc1CN1CCCNCCNCCCNCC1	45.15

Continue with the next molecule.
Name the reported Plate 1 (% conversion) value associated with the molecule C=C(c1ccc(C(=O)O)cc1)c1cc2c(cc1C)C(C)(C)CCC2(C)C
52.24

---

Parameter Plate 1 (% inhibition): see the listing below.
- study_system: human AspH (His6-AspH315–758) (Homo sapiens)
- Construct: N-Terminally His6-tagged human AspH315–758 (His6-AspH315–758) was produced in Escherichia coli BL21 (DE3) cells; made in house; host or cells: Escherichia coli BL21 (DE3), pET-28a(+) vector
- protocol: SPE-MS AspH inhibition assay (hFX-CP101-119 substrate hydroxylation)
- Format: biochemical
- condition_context: AspH-inhibitor screening, 384-well Plate 1
Could you give me the number in %? Just the number is fine.

Examples with their reported Plate 1 (% inhibition) follow.
compound	observable	reported
COc1cccc2cc(-c3nc([C@H]4CC[C@H](C(=O)O)CC4)n4ncnc(N)c34)[nH]c12 [OSI-027]	Plate 1 (% inhibition)	-4.91
CN1CCN(c2nc(C3=C(c4c[nH]c5ccccc45)C(=O)NC3=O)c3ccccc3n2)CC1 [Sotrastaurin]	Plate 1 (% inhibition)	20.56
CNC(=O)c1ccccc1Sc1ccc2c(/C=C/c3ccccn3)n[nH]c2c1 [Axitinib]	Plate 1 (% inhibition)	0.59

# get_value(readout='Plate 1 (% inhibition)', item= COc1cc(O)c2c(c1)/C=C/C[C@H](O)[C@H](O)C(=O)/C=C\C[C@H](C)OC2=O [(5Z)-7-Oxozeaenol] )
21.38

May I ask what Plate 1 (% inhibition) has been recorded for CC(=O)Nc1cccc(-n2c(=O)n(C3CC3)c(=O)c3c(Nc4ccc(I)cc4F)n(C)c(=O)c(C)c32)c1 [GSK1120212_Trametinib] ?
-0.37

---

Measured Plate 1 (% inhibition) values are reported for all entries that follow.
- study_system: human AspH (His6-AspH315–758) (Homo sapiens, UniProt Q12797)
- Construct: N-Terminally His6-tagged human AspH315–758 (His6-AspH315–758) was produced in Escherichia coli BL21 (DE3) cells; made in house; host or cells: Escherichia coli BL21 (DE3), pET-28a(+) vector
- protocol: SPE-MS AspH inhibition assay (hFX-CP101-119 substrate hydroxylation)
- Format: biochemical

Examples with answers:
molecule	Plate 1 (% inhibition)
C1CN1c1nc(N2CC2)nc(N2CC2)n1	6.96%
O=[As]O[As]=O (stereo not drawn) [Arsenic(III) oxide]	7.82%

Recall the recorded Plate 1 (% inhibition) for CCN(CC)CCCC(C)Nc1ccnc2cc(Cl)ccc12 (stereo not drawn) [Chloroquine diphosphate] with human AspH (His6-AspH315–758) (Homo sapiens, UniProt Q12797) and state it.
13.23%

---

- study_system: human AspH (His6-AspH315–758) (Homo sapiens, UniProt Q12797)
- Construct: N-Terminally His6-tagged human AspH315–758 (His6-AspH315–758) was produced in Escherichia coli BL21 (DE3) cells; made in house; host or cells: Escherichia coli BL21 (DE3), pET-28a(+) vector
- protocol: SPE-MS AspH inhibition assay (hFX-CP101-119 substrate hydroxylation)
- Format: biochemical
- condition_context: AspH-inhibitor screening, Plate 1-duplicate, substrate conversion
Structures can show the parent of a compound that is named as a salt.
observable: Plate 1-duplicate (% conversion)
Answer format reminder: number followed by unit.

Example cases with answers are listed next.
compound	Plate 1-duplicate (% conversion)
Cc1cn(-c2cc(NC(=O)c3ccc(C)c(Nc4nccc(-c5cccnc5)n4)c3)cc(C(F)(F)F)c2)cn1	55.95%
O=c1[nH]c(=O)n([C@H]2C[C@H](O)[C@@H](CO)O2)cc1F	49.13%
COc1cc2ncnc(Nc3ccc(F)c(Cl)c3)c2cc1NC(=O)/C=C/CN1CCCCC1.O [Dacomitinib (monohydrate) (PF-00299804)]	59.49%
C[C@@H]1C[C@H]2[C@@H]3CCC4=CC(=O)C=C[C@]4(C)[C@@]3(F)[C@@H](O)C[C@]2(C)[C@@]1(O)C(=O)CO	51.38%
CS(=O)(=O)N1CCN(Cc2cc3nc(-c4cccc5[nH]ncc45)nc(N4CCOCC4)c3s2)CC1	50.77%
CO[C@H]1/C=C\C=C(/C)C(=O)NC2=CC(=O)C(NCCN(C)C)=C(C[C@@H](C)C[C@H](OC)[C@H](O)[C@@H](C)/C=C(\C)[C@@H]1OC(N)=O)C2=O	55.19%

human AspH (His6-AspH315–758) (Homo sapiens, UniProt Q12797) / Plate 1-duplicate (% conversion) / CC/C(=C(\c1ccccc1)c1ccc(OCCN(C)C)cc1)c1ccccc1 [Tamoxifen citrate] : value?
22.61%

Quick check: Plate 1-duplicate (% conversion) on human AspH (His6-AspH315–758) (Homo sapiens, UniProt Q12797), item Cc1c(C(=O)Nc2ccc(N3C[C@@H](C)O[C@@H](C)C3)nc2)cccc1-c1ccc(OC(F)(F)F)cc1 ?
55.37%

Field: Plate 1-duplicate (% conversion) (human AspH (His6-AspH315–758) (Homo sapiens, UniProt Q12797)). Entry: OC[C@H]1O[C@@H](n2cnc3c2NC=NC[C@H]3O)C[C@@H]1O
48.04%

GET /values?readout=Plate 1-duplicate (% conversion)&system=human AspH (His6-AspH315–758) (Homo sapiens, UniProt Q12797)&item= CNCc1ccc(-c2[nH]c3cc(F)cc4c3c2CCNC4=O)cc1
47.39%

What value of Plate 1-duplicate (% conversion) on human AspH (His6-AspH315–758) (Homo sapiens, UniProt Q12797) does COc1cc2c(cc1O)CC[C@@H]1[C@@H]2CC[C@]2(C)[C@@H](O)CC[C@@H]12 have?
50.24%

Please state recorded Plate 1-duplicate (% conversion) (tested on human AspH (His6-AspH315–758) (Homo sapiens, UniProt Q12797)) of CC(=O)Nc1ccc(C(=O)Nc2ccccc2N)cc1
49.78%

Observed Plate 1-duplicate (% conversion) on human AspH (His6-AspH315–758) (Homo sapiens, UniProt Q12797) for CC[C@@H]1C(=O)N(C)c2cnc(Nc3ccc(C(=O)N[C@H]4CC[C@H](N5CCN(CC6CC6)CC5)CC4)cc3OC)nc2N1C(C)C , please.
61.82%

GET /values?readout=Plate 1-duplicate (% conversion)&system=human AspH (His6-AspH315–758) (Homo sapiens, UniProt Q12797)&item= CC(C)(C#N)c1cc(Cn2cncn2)cc(C(C)(C)C#N)c1
50.14%
